Would you mind telling me the reported kinase still bound, per cent of control of each entry?
- tgt: EPHB4 (human)
- assay_name: KINOMEscan competition binding
- setup_conditions: compound 10.0 µM
Answers are plain numbers, in %.

Give kinase still bound, per cent of control for each of the items listed below.
1. COc1cc(C(=O)NC2CCN(C)CC2)ccc1Nc1ncc2c(n1)N(C1CCCC1)CCC(=O)N2C(C)C
2. O=C1Nc2ccc(I)cc2/C1=C/c1cc(Br)c(O)c(Br)c1
3. O=C(NC1CC1)c1cccc(-c2ccc3c(NC(=O)C4CC4)n[nH]c3c2)c1
4. C=CC(=O)Nc1cccc(Nc2nc(N[C@H]3CC[C@H](N(C)C)CC3)nc3c2ncn3C(C)C)c1
5. CCOc1cc2ncc(C#N)c(Nc3ccc(OCc4ccccn4)c(Cl)c3)c2cc1NC(=O)/C=C/CN(C)C

1: 100; 2: 100; 3: 100; 4: 60; 5: 91

Please look at the items below and tell me kinase still bound, per cent of control for each one, in order.
1. C=CC(=O)Nc1cc(NC(=O)c2ccc(C)c(NC(=O)c3ccno3)c2)cc(C(F)(F)F)c1
2. Cn1c(=O)n(-c2ccc(C(C)(C)C#N)cc2)c2c3cc(-c4cnc5ccccc5c4)ccc3ncc21
3. CCN1CCN(Cc2ccc(Nc3ncc4c(n3)N(C)c3ccccc3C(=O)N4C)cc2C(F)(F)F)CC1
4. O=C(NOC[C@H](O)CO)c1ccc(F)c(F)c1Nc1ccc(I)cc1F

1. 87
2. 100
3. 93
4. 100

====

Please go through the items and note down their kinase still bound, per cent of control.
- Test system: KIT (human), P10721 [D816V]
- Sequence (P10721 whole entry D816V, looked up): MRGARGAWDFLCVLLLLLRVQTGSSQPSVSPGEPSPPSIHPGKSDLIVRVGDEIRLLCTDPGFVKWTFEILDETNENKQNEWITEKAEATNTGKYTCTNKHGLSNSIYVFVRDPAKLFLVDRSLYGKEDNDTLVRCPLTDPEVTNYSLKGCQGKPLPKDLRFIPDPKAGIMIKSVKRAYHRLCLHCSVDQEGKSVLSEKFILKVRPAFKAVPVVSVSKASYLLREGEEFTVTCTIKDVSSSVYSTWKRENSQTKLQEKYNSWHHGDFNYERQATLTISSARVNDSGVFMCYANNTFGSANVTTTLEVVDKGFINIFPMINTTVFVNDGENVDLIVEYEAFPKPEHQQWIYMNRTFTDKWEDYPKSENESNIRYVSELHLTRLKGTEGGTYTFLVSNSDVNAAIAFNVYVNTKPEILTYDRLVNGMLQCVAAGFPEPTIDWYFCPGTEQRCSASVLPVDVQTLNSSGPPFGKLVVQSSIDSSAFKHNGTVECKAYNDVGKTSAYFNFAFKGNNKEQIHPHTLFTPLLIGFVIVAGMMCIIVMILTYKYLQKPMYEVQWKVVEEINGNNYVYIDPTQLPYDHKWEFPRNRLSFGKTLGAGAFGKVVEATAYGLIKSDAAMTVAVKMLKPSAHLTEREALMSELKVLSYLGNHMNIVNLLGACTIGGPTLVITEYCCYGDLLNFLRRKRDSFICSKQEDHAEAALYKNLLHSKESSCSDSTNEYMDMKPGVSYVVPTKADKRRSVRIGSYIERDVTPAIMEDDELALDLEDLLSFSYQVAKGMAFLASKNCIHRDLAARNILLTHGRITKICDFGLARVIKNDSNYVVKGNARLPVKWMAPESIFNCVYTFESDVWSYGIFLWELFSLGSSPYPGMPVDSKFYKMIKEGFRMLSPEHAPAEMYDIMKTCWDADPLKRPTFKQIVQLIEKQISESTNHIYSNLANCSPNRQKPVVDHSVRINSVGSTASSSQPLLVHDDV
- assay_name: KINOMEscan competition binding
- setup_conditions: compound 10.0 µM
Numeric answer plus unit only.

input_smiles	kinase still bound, per cent of control
Cc1ccc(NC(=O)c2cccc(C(C)(C)C#N)c2)cc1Nc1ccc2ncn(C)c(=O)c2c1	16%
COc1cc(N2CCN(C)CC2)ccc1Nc1ncc2c(n1)N(C)c1ccccc1C(=O)N2C	100%

Give kinase still bound, per cent of control for each listed item.
1. O=C(Nc1cccc(Nc2ncc(Br)c(NCCc3cnc[nH]3)n2)c1)N1CCCC1
2. N#Cc1c(NC(=O)c2cccc3ccccc23)sc2c1CCCC2

1: 0.15%; 2: 97%

For each entry beneath this line, provide reported kinase still bound, per cent of control.
1. C[C@@H](Oc1cc(-n2cnc3ccc(CN4CCN(C)CC4)cc32)sc1C(N)=O)c1ccccc1C(F)(F)F
2. CNC(=O)Nc1ccc(-c2nc(N3CC4CCC(C3)O4)c3cnn(C4CCC5(CC4)OCCO5)c3n2)cc1
3. COc1cc2ncnc(Nc3cccc(Cl)c3)c2cc1OC
4. Cc1cc([C@@H](C)Nc2ccccc2C(=O)O)c2nc(N3CCOCC3)cc(=O)n2c1
5. C=CC(=O)Nc1cccc(Nc2nc(N[C@H]3CC[C@H](N(C)C)CC3)nc3c2ncn3C(C)C)c1
6. CC(=O)c1c(C)c2cnc(Nc3ccc(N4CCNCC4)cn3)nc2n(C2CCCC2)c1=O
7. CN(C)C/C=C/C(=O)Nc1cccc(Nc2ncc3c(n2)N(C)c2ccccc2C(=O)N3C)c1
8. COc1ccc(N(C(=O)Oc2cc(C(=O)Nc3cccc(C(F)(F)F)c3)ccc2C)c2ccnc(Nc3ccc(N4CCN(C)CC4)cc3)n2)c(OC)c1

16%
82%
38%
81%
10%
74%
7.4%
0.75%

Dear colleague, could you please provide kinase still bound, per cent of control for the compounds listed below?
1. CCOc1cc(N2CCC(O)CC2)ccc1Nc1ncc2c(n1)N(C)c1ccccc1C(=O)N2C
2. CN(C)C/C=C/C(=O)Nc1ccc(C(=O)Nc2cccc(Nc3nccc(-c4cccnc4)n3)c2)cc1
3. CCc1nc(-c2cccc(C)c2)c(-c2ccnc(NC(=O)c3ccccc3)c2)s1
4. Cc1ccc(C(=O)Nc2cccc(C(F)(F)F)c2)cc1Nc1cncc(C(N)=O)c1
5. O=c1cc(N2CCOCC2)oc2c(-c3cccc4c3sc3ccccc34)cccc12

100%
30%
5.6%
100%
58%

====

- tgt: ADCK4 (human) (UniProt Q96D53)
- Sequence (Q96D53 whole entry, looked up): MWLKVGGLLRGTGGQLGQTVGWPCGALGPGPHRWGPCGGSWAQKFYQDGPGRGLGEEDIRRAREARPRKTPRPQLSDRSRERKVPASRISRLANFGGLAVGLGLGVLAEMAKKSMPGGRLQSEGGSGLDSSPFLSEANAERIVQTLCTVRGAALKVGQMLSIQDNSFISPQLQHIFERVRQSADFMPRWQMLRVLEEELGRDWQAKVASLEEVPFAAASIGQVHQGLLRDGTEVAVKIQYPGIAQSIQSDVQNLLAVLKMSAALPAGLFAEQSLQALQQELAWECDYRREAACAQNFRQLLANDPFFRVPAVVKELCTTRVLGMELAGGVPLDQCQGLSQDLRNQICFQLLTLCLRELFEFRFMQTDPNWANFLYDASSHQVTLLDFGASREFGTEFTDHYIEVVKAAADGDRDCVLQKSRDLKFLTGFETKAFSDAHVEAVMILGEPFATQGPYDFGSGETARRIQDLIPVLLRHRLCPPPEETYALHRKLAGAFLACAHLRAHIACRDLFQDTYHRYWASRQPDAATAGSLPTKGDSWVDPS
- assay_name: KINOMEscan competition binding
- setup_conditions: compound 10.0 µM
readout_kind: kinase still bound, per cent of control (%)
Give bare numbers, in %.

Fill in kinase still bound, per cent of control for each of the 2 molecules listed.
1. Cn1c(=O)n(-c2ccc(C(C)(C)C#N)cc2)c2c3cc(-c4cnc5ccccc5c4)ccc3ncc21
2. COc1cc(C(=O)NC2CCN(C)CC2)ccc1Nc1ncc2c(n1)N(C1CCCC1)CCC(=O)N2C(C)C

100
100

// batch mode: one kinase still bound, per cent of control value per listed entry
1. O=C(NC1CC1)c1cccc(-c2ccc3c(NC(=O)C4CC4)n[nH]c3c2)c1
2. OCCCNc1cc(-c2ccnc(Nc3cccc(Cl)c3)n2)ccn1
3. CCCS(=O)(=O)Nc1ccc(F)c(C(=O)c2c[nH]c3ncc(-c4ccc(Cl)cc4)cc23)c1F
4. C[C@@H](Oc1cc(-n2cnc3ccc(CN4CCN(C)CC4)cc32)sc1C(N)=O)c1ccccc1C(F)(F)F
5. COc1cc(N2CCN(C)CC2)ccc1Nc1nc(N)c(C(=O)c2c(Cl)cccc2Cl)s1

[88, 100, 100, 58, 81]

====

- tgt: MAP3K7 (human)
- assay_name: KINOMEscan competition binding
- setup_conditions: compound 10.0 µM
readout_kind: kinase still bound, per cent of control
Quick note: number first, unit second.

Observe how each entry below is paired with its result.
compound	kinase still bound, per cent of control
COc1cc(C(=O)NC2CCN(C)CC2)ccc1Nc1ncc2c(n1)N(C1CCCC1)C(C)CC(=O)N2C (stereo not given)	100%
Cc1ccc2nc(NCCN)c3ncc(C)n3c2c1	100%
N#Cc1c(NC(=O)c2cccc3ccccc23)sc2c1CCCC2	82%
C=CC(=O)Nc1cc(NC(=O)c2ccc(C)c(NC(=O)c3ccno3)c2)cc(C(F)(F)F)c1	98%

Read the next record carefully.
Given the entry OCCCNc1cc(-c2ccnc(Nc3cccc(Cl)c3)n2)ccn1 , report its measured kinase still bound, per cent of control.
100%

====

Exercise: state measured kinase still bound, per cent of control for each of the compounds provided.
- tgt: FER (human) (UniProt P16591)
- Sequence (P16591 whole entry, looked up): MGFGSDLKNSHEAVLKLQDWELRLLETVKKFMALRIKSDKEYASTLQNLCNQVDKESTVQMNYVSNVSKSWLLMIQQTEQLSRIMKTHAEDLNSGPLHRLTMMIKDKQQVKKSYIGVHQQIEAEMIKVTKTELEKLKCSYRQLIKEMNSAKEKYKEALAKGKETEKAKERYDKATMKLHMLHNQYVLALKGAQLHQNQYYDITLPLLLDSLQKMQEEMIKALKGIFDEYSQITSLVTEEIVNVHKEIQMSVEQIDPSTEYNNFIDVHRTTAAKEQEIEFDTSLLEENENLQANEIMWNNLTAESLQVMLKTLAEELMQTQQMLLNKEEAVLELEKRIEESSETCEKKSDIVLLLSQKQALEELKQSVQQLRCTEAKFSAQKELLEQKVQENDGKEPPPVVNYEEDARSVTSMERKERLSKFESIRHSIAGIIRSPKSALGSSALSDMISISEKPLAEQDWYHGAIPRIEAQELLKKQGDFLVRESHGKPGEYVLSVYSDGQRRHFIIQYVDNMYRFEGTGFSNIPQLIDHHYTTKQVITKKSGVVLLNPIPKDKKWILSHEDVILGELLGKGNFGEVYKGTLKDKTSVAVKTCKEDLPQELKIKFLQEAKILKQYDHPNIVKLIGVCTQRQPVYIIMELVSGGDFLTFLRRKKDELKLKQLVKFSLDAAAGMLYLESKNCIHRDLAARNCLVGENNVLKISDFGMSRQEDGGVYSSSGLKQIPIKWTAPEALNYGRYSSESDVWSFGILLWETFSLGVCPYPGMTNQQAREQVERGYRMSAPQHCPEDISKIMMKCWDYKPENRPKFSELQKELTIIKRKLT
- assay_name: KINOMEscan competition binding
- setup_conditions: compound 10.0 µM
One number for each entry, in %.

# example entries with known answers
input_smiles	kinase still bound, per cent of control [%]
CC[C@@H]1C(=O)N(C)c2cnc(Nc3ccc(C(=O)NC4CCN(C)CC4)cc3OC)nc2N1C1CCCC1	100
C=CC(=O)Nc1cccc(Oc2nc(Nc3ccc(N4CCN(C)CC4)cc3OC)ncc2Cl)c1	11
CCN1CCN(Cc2ccc(Nc3ncc4c(n3)N(C)c3ccccc3C(=O)N4C)cc2C(F)(F)F)CC1	100
C=CC(=O)Nc1cccc(Nc2nc(N[C@H]3CC[C@H](N(C)C)CC3)nc3c2ncn3C(C)C)c1	74
Cn1c(=O)n(-c2ccc(C(C)(C)C#N)cc2)c2c3cc(-c4cnc5ccccc5c4)ccc3ncc21	100
Cc1ccc2nc(NCCN)c3ncc(C)n3c2c1	98
Cc1ccc(NC(=O)c2cccc(C(C)(C)C#N)c2)cc1Nc1ccc2ncn(C)c(=O)c2c1	100
OCCCNc1cc(-c2ccnc(Nc3cccc(Cl)c3)n2)ccn1	100

Param readout = kinase still bound, per cent of control; param system = FER (human) (UniProt P16591); param query = Cc1cc([C@@H](C)Nc2ccccc2C(=O)O)c2nc(N3CCOCC3)cc(=O)n2c1 ; response: value
100

====

- tgt: SRC (human)
- assay_name: KINOMEscan competition binding
- setup_conditions: compound 10.0 µM
readout_kind: kinase still bound, per cent of control (%)
One number for each entry, in %.

Can you give me kinase still bound, per cent of control for all of these, one by one?
1. C[C@@H](Oc1cc(-n2cnc3ccc(CN4CCN(C)CC4)cc32)sc1C(N)=O)c1ccccc1C(F)(F)F
2. CCOc1cc2ncc(C#N)c(Nc3ccc(OCc4ccccn4)c(Cl)c3)c2cc1NC(=O)/C=C/CN(C)C
3. CCN1CCN(Cc2ccc(Nc3ncc4c(n3)N(C)c3ccccc3C(=O)N4C)cc2C(F)(F)F)CC1
4. C=CC(=O)Nc1cc(NC(=O)c2ccc(C)c(NC(=O)c3ccno3)c2)cc(C(F)(F)F)c1
5. CN(C)C/C=C/C(=O)Nc1cccc(Nc2ncc3c(n2)N(C)c2ccccc2C(=O)N3C)c1

100
82
2
49
0.7

====

Kindly state kinase still bound, per cent of control for each of the entries shown.
- tgt: ROCK1 (human)
- assay_name: KINOMEscan competition binding
- setup_conditions: compound 10.0 µM
One number for each entry, in %.

Some compounds with recorded kinase still bound, per cent of control:
input_smiles	readout_kind	numeric_value
Nc1ccc(-c2ccc3ncc4ccc(=O)n(-c5cccc(C(F)(F)F)c5)c4c3c2)cn1	kinase still bound, per cent of control	79
COc1cc(C(=O)NC2CCN(C)CC2)ccc1Nc1ncc2c(n1)N(C1CCCC1)CCC(=O)N2C(C)C	kinase still bound, per cent of control	100
C=CC(=O)Nc1cc(NC(=O)c2ccc(C)c(NC(=O)c3ccno3)c2)cc(C(F)(F)F)c1	kinase still bound, per cent of control	100
O=C1Nc2ccc(I)cc2/C1=C/c1cc(Br)c(O)c(Br)c1	kinase still bound, per cent of control	80
OCCCNc1cc(-c2ccnc(Nc3cccc(Cl)c3)n2)ccn1	kinase still bound, per cent of control	100
CCC(=O)N1CCN(c2ccc(-n3c(=O)ccc4cnc5ccc(-c6cnc7ccccc7c6)cc5c43)cc2C(F)(F)F)CC1	kinase still bound, per cent of control	53
CCOc1cc2ncc(C#N)c(Nc3ccc(OCc4ccccn4)c(Cl)c3)c2cc1NC(=O)/C=C/CN(C)C	kinase still bound, per cent of control	100
CCCS(=O)(=O)Nc1ccc(F)c(C(=O)c2c[nH]c3ncc(-c4ccc(Cl)cc4)cc23)c1F	kinase still bound, per cent of control	85

Need kinase still bound, per cent of control of Cc1cc([C@@H](C)Nc2ccccc2C(=O)O)c2nc(N3CCOCC3)cc(=O)n2c1 , thanks.
73
